- system under test: Tau
- measurement protocol: rat primary cortical neurons, FLIPR, 25 uM ASO
Bases are written 5' to 3'; sugars and linkages follow in the same order, as letters with counts (s phosphorothioate, o phosphodiester; PS: all linkages phosphorothioate). The collection does not say whether C is 5-methylated. l = locked nucleic acid (LNA); d = 2'-deoxy (DNA)
Measured calcium oscillation score, listed per entry.

residues	calcium oscillation score
CTCCCTTTAATGCCAGGCCC (sugars l3 d14 l3, PS)	20.1 % of control
CGACTTATCTATCCATCT (sugars l2 d12 l4, PS)	45.8 % of control
AGAGGCACAAGTCCTT (sugars l3 d10 l3, PS)	78.1 % of control
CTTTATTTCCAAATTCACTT (sugars l4 d11 l5, PS)	136 % of control
TTATTTCCAAATTCACTTTT (sugars l5 d11 l4, PS)	119 % of control
CATCAATTTGGAAAGATGAA (sugars l3 d14 l3, PS)	62.5 % of control
TCCCGTCTTTGCTTTTACTG (sugars l3 d14 l3, PS)	3.7 % of control
CTCCTGGTTTATGATG (sugars l3 d10 l3, PS)	31.3 % of control
CTGTCACTATCACTTCA (sugars l2 d11 l4, PS)	75.3 % of control
GATTTTACTACTCTCTT (sugars l4 d9 l4, PS)	85.5 % of control
CTGGTTTATGATGGAT (sugars l3 d10 l3, PS)	0 % of control
CATCTTAATTCATTTAATTC (sugars l4 d12 l4, PS)	84.1 % of control
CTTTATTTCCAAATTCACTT (sugars l5 d10 l5, PS)	≥ 200 % of control
CCAGTGCCTGGCACAACAGG (sugars l3 d14 l3, PS)	4.03 % of control
CCTTACTTTCTACTCAATT (sugars l3 d14 l2, PS)	48.1 % of control
CCTTTTAATTCATTAG (sugars l4 d8 l4, PS)	59 % of control
CTCATCAACACCTTTTAATT (sugars l4 d14 l2, PS)	78.7 % of control
TGGATCAGAGGGTCTG (sugars l3 d10 l3, PS)	7.41 % of control
GCCACCTCCTGGTTTATGAT (sugars l3 d14 l3, PS)	31.6 % of control
CAGCCACTGTTGCCAC (sugars l2 d12 l2, PS)	51.2 % of control
CAACAATCCAACCACTAAA (sugars l4 d11 l4, PS)	89.8 % of control
AATTCACACAACAAACTAT (sugars l4 d11 l4, PS)	74.5 % of control
TCAACTGGTTTGTAGA (sugars l3 d10 l3, PS)	110 % of control

Values from the OligoGym collection
